Would you mind telling me the reported % survival of cynomolgous monocytes at 5 µg/ml antibody (150 ng/ml huCSF-1, CellTiterGlo) of each entry?
- experimental_target: CSF-1R on cynomolgous monocytes (cynomolgous)
- assay_text: cell-based or functional assay
Kindly provide the numeric value in % only, without the unit symbol.

What value of measured % survival of cynomolgous monocytes at 5 µg/ml antibody (150 ng/ml huCSF-1, CellTiterGlo) is listed for Mab 2E10 (antibody, V domains shown, Murine monoclonal antibody) VH: QVQLKESGPGLVAPSKSLSITCTVSGSSLDSFDISWIRQSPGKGLEWLGVIWTGGGTNYNSGFMSRLRITKDNSKSQVLLKMNSLQSDDTAIYYCVRDPRLYFDVWGAGTTVTVSS VL: NIVMTQSPKSMSMSVGERVTLSCKASEDVVTYVSWYQQKPDQSPKLLIYGASNRYTGVPDRFTGSGSATDFTLTISSVQAEDLADYYCGQTFSYPTFGTGTKLEIK ?
17

Quick one: % survival of cynomolgous monocytes at 5 µg/ml antibody (150 ng/ml huCSF-1, CellTiterGlo) for Mab 1G10 (antibody, V domains shown, Murine monoclonal antibody) VH: RVQLKESGPGLVAPSQSLSITCTVSGFSLTSYDISWIRQSPGKGLEWLGVIWSGGGTNYNSPFMSRLRISKDDSRSQVFLKVNRLQTDDTAIYYCVRDLRLYFDVWGAGTTVTVSS VL: KIVMTQSPKSMSVSVGERVSLSCKASEDVGTYVSWYQQKPEQSPKLLIYGSSNRYTGVPDRFTGSGSATDFTLTISSVQAEDLADYSCGQSFTYPTFGTGTKLEIK ?
2

Please report the recorded % survival of cynomolgous monocytes at 5 µg/ml antibody (150 ng/ml huCSF-1, CellTiterGlo) for Mab 2H7 (antibody, V domains shown, Murine monoclonal antibody) VH: QVQLKESGPGLVAPSKSLSITCTVSGSSLDSFDISWIRQPPGKGLEWLGVIWTGGGTNYNSGFMSRLRISKDNSKSQVFLKMSSLQSDDTAIYYCVRDPRLYFDVWGAGTTVTVSS VL: NIVMTQSPKSMSMSVGERVTLSCKASEDVVTYVSWYQQKPEQSPKLLIYGASNRYTGVPDRFTGSGSATDFTLTISSIQAEDLADYYCGQTFSYPTFGTGTKLEIK .
8

What value of measured % survival of cynomolgous monocytes at 5 µg/ml antibody (150 ng/ml huCSF-1, CellTiterGlo) is listed for Mab 2F11 (antibody, V domains shown, Murine monoclonal antibody from hybridoma; also called muMab 2F11) VH: QVQLKESGPGLVAPSQSLSITCTVSGFSLTTYDISWIRQSPGKGLEWLGVIWTDGGTNYNSPFMSRLSIRKDNSKSQVFLKMNRLQTDDTAIYYCVRDQRLYFDVWGAGTTVTVSS VL: NIVMTQSPKSMSMSVGERVTLNCKASEDVNTYVSWYQQQPEQSPKLLIYGASNRYTGVPDRFTGGGSTTDFTLTISSVQAEDLADYFCGQSFSYPTFGTGTKLEIK ?
4
